# assay-target: Ubiquitin carboxyl-terminal hydrolase 10 (Homo sapiens)
# method-summary: ubiquitin-specific protease 10 DUB inhibitors, concentration-effect, biochemical, verification of primary screen actives (AID 1645863);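 also: potency values describe inhibition of USP10 cleavage of a fluorogenic ubiquitin substrate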
# condition-context: USP10 deubiquitinase enzymatic assay
Active and inactive are the calls of the source. No rule for the calls is given here.
Hello, when you answer, please use one of the following outcomes: class 1 = active, class 0 = inactive

Here are 10 molecules together with their reported answers.
{"molecule": "O=C(CCc1ccc(S(=O)(=O)N2CCOCC2)cc1)OCC(=O)c1ccc(-c2ccccc2)cc1", "class": "class 1"}
{"molecule": "O=C(CSc1nc2ccccc2[nH]1)Nc1cccc2c1OCCO2", "class": "class 0"}
{"molecule": "CCOc1ccc2c(c1)c(=O)c(C(=O)c1ccc(F)cc1)cn2CC(=O)Nc1ccccc1", "class": "class 0"}
{"molecule": "O=C(COC(=O)c1cc2c(s1)CCC2)c1ccc2[nH]c(=O)[nH]c2c1", "class": "class 0"}
{"molecule": "Cc1ccc(NC(=O)Nc2ccc(C)n(CC(=O)Nc3cc(C)ccc3C)c2=O)cc1", "class": "class 0"}
{"molecule": "O=c1c2ccccc2oc2nc(-c3cccs3)n(-c3ccccc3)c(=O)c12", "class": "class 1"}
{"molecule": "Cc1cc(-c2nnc(SCC(=O)Nc3ccc(Br)c(C)c3)n2N)n[nH]1", "class": "class 0"}
{"molecule": "O=C(c1ccco1)N1CCC2(CC1)CC1(CO2)Nc2ccccc2-n2cccc21 (centres undefined)", "class": "class 0"}
{"molecule": "COc1ccc(NC(=O)Cn2c(=O)n(-c3ccc(CC(=O)NCc4ccco4)cc3)c(=O)c3ccccc32)cc1Cl", "class": "class 1"}
{"molecule": "Cc1ccc2c(c1)N(C)C(=O)c1cc(NC(=O)c3ccc(F)cc3)ccc1O2", "class": "class 1"}

[in] Recorded test outcome, item O=S(=O)(Nc1ccc(Oc2ncnc3cc(Cl)ccc23)nc1)c1ccc(S(=O)(=O)c2ccccc2)s1
[out] class 1

[in] Please do the same for CSC1SCC2C(=O)N(C)C(C(C)C(C)C)C(=O)OCC(NC(=O)c3cnc4ccccc4n3)C(=O)NC(C)C(=O)N(C)C1C(=O)N(C)C(C(C)C(C)C)C(=O)OCC(NC(=O)c1cnc3ccccc3n1)C(=O)NC(C)C(=O)N2C (centres undefined) as well.
[out] class 1

[in] Try the molecule CCOCc1ccc(C(=O)N[C@H](C)c2nc3cc(-c4ccc(OC)cc4)ncn3n2)cc1
[out] class 0

[in] Lookup O=S1(=O)CCN(Cc2cccnc2)c2c(F)nc(N3CCOCC3)c(F)c21
[out] class 0

[in] Would you mind doing CC(NC(=O)c1ccccc1)c1nc2ccccc2n1CC(=O)Nc1ccc(C#N)cc1 (centres undefined) as well?
[out] class 1

[in] Now the same for COC(=O)c1cc2c(ccn2-c2ccc(F)cc2)n1CC(=O)NC1CCCCC1
[out] class 0

[in] Entry to check: CC(=O)c1ccc(NC(=O)CCc2c(C)c3c(C)nn(-c4ccccc4)c3n(C)c2=O)cc1
[out] class 0

[in] Ok, now COc1ccc(-c2noc(CC(=O)Nc3cccc(OC)c3)n2)cc1
[out] class 0

[in] One more molecule: COC(=O)c1ccc(NC(=O)c2ccc(COc3cc(Cl)ccc3Cl)cc2)cc1
[out] class 0
